# systemName: human OATP2B1 (Homo sapiens)
# Type: cell-based
# setupConditions: 5 μM flavonolignan, 5 minutes; uptake minus wild-type CHO cells

# compound, substrate for OATP2B1
data = [
    ("COc1cc([C@@H]2Oc3c(O)cc([C@H]4Oc5cc(O)cc(O)c5C(=O)[C@@H]4O)cc3[C@H]2CO)ccc1O [SC, silychristin]", "substrates"),
    ("COc1cc([C@H]2Oc3cc([C@H]4Oc5cc(O)cc(O)c5C(=O)[C@@H]4O)ccc3O[C@@H]2CO)ccc1O [SA, silybin A]", "substrates"),
    ("COc1cc([C@@H]2Oc3ccc([C@H]4Oc5cc(O)cc(O)c5C(=O)[C@@H]4O)cc3O[C@H]2CO)ccc1O [IB, isosilybin B]", "substrates"),
]

----------
# systemName: human OATP2B1 (Homo sapiens, UniProt O94956)
# Sequence (O94956 whole entry): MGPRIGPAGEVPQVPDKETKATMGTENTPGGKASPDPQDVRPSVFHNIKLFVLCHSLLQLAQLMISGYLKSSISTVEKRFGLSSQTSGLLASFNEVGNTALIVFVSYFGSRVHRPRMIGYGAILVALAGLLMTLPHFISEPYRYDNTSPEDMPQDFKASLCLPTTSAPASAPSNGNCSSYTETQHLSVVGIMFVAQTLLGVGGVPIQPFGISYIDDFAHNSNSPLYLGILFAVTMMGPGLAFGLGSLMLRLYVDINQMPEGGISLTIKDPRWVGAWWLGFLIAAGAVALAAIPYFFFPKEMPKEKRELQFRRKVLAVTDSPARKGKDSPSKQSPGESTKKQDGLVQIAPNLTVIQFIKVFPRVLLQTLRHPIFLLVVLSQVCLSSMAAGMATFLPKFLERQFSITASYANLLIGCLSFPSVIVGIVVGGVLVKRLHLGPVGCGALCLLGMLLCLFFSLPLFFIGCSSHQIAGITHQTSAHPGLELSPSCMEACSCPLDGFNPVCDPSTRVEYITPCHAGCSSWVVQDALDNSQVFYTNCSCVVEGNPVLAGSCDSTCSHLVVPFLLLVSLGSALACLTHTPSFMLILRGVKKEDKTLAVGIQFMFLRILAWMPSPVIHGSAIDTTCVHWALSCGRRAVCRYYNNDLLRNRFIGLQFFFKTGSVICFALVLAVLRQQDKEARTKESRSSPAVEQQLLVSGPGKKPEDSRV
# Format: cell-based
# setupConditions: 5 μM flavonolignan, 5 minutes; uptake minus wild-type CHO cells
observedProperty: substrate for OATP2B1

# smiles, endpointResult
records = [
    ("COc1cc([C@@H]2Oc3cc([C@H]4Oc5cc(O)cc(O)c5C(=O)[C@@H]4O)ccc3O[C@H]2CO)ccc1O", "substrates"),
    ("COc1cc([C@H]2Oc3ccc([C@H]4Oc5cc(O)cc(O)c5C(=O)[C@@H]4O)cc3O[C@@H]2CO)ccc1O", "substrates"),
    ("COc1cc([C@@H]2[C@H]3CO[C@@]4(O)C(=O)[C@@H]2C=C([C@H]2Oc5cc(O)cc(O)c5C(=O)[C@@H]2O)[C@@H]34)ccc1O", "substrates"),
]
